# Test system: H61 cells: NIH transformed 3T3 H-ras cells
# assay.summary: Clonogenic assay (6 well plates, soft agar)
# Assay type: cell-based
# test.conditions: 312 h, colonies counted after Day 13, read-out: Clonogenic Assay IC50
value.kind: IC50

(Q) Recorded IC50 of O=C(CN(Cc1ccc(OCc2ccccc2)cc1)C(=O)[C@H](Cc1c[nH]cn1)NC(=O)OCc1ccccc1)NCC(c1ccccc1)c1ccccc1Cl (stereo partly drawn) , please.
(A) 0.82 µM

(Q) Which measured IC50 value corresponds to O=C(CN(Cc1ccc(OCc2ccccc2)cc1)C(=O)[C@H](Cc1c[nH]cn1)NC(=O)OCc1ccccc1)NCCc1ccccc1Br ?
(A) > 1 µM

(Q) What measured IC50 goes with O=C(CN(Cc1ccc(OCc2ccccc2)cc1)C(=O)[C@H](Cc1c[nH]cn1)NC(=O)OCc1ccccc1)NCCc1ccccc1F ?
(A) > 1 µM

Source of measurements: patent US6300501A
